Tested on: Botrytis cinerea
Test: Eggplant grey mold
Assay type: in vivo
Parameters: key: 0: No disease control; 1: Low level of control; 2: Moderate control; 3: High level of control
Conditions: eggplant sprayed with 500 ppm, inoculated 24 h later, rated after 3-4 days
ENDPOINT: Disease Control Rating at 500 ppm
Give your answer as a number; write no unit.

Please review the entries below; each comes with its answer.
Value of measured Disease Control Rating at 500 ppm for the entry "Cn1cc(C(=O)Nc2ccccc2CC2=CCCC2)c(C(F)F)n1" : 2

The compound identified as "CC1=C(c2ccccc2NC(=O)c2cn(C)nc2C(F)(F)F)CCC1" registered its Disease Control Rating at 500 ppm at 3

GET /value?item= Cc1nn(C)c(Cl)c1C(=O)Nc1ccccc1[C@@H]1C[C@H]2CC[C@@H]1C2 (relative stereo) &field=Disease Control Rating at 500 ppm returns 0

Next:
Per the records, this compound ( Cn1cc(C(=O)Nc2ccccc2[C@@H]2C[C@H]3CC[C@@H]2C3)c(C(F)(F)Cl)n1 (relative stereo) ) has Disease Control Rating at 500 ppm equal to 0

The compound identified as "Cn1cc(C(=O)Nc2ccccc2CC2CCCCCC2)c(C(F)F)n1" registered its Disease Control Rating at 500 ppm at 0

Measured Disease Control Rating at 500 ppm, "Cn1cc(C(=O)Nc2ccccc2C2CCCCC2)c([N+](=O)[O-])n1" : 1

Disease Control Rating at 500 ppm recorded for this compound, "Cn1cc(C(=S)Nc2ccccc2C2CCCCCC2)c(C(F)(F)F)n1" , is 2

// field: Disease Control Rating at 500 ppm; key: "Cn1cc(C(=O)Nc2ccccc2C2CCCC2)c(I)n1" ; value = 0

Disease Control Rating at 500 ppm reading for Cn1nc(C(F)(F)F)c(C(=O)Nc2ccccc2[C@@H]2C[C@H]3CC[C@@H]2C3)c1F (relative stereo) : 2

Per the record, C[C@@H]1CCC[C@H](c2ccccc2NC(=O)c2cn(C)nc2C(F)(F)F)C1 (relative stereo) has Disease Control Rating at 500 ppm of 2

Form field Disease Control Rating at 500 ppm, entry "Cc1cc(C)c(C2CCCC2)c(NC(=O)c2cn(C)nc2C(F)(F)F)c1" : 0
